Data origin: patent EP1878738A1

Assay: Example 6: 1-kestose intake with no side effect (diarrhea, organs, blood)
Parameters: species or system human
Details: human, in vivo, po
Measurement Type: 1-kestose intake with no side effect

q: Which 1-kestose intake with no side effect value belongs to OC[C@H]1O[C@@](CO)(OC[C@@]2(O[C@H]3O[C@H](CO)[C@@H](O)[C@H](O)[C@H]3O)O[C@H](CO)[C@@H](O)[C@@H]2O)[C@@H](O)[C@@H]1O ?
a: ≤ 400 mg/kg/day
